Test: Cytotoxicity against human 293T cells assessed as growth inhibition at 10 uM after 72 hrs by SRB assay relative to control
Assay type: cell-based
Conditions: HEK-293T cells, read-out: GI
Quantity Kind: inhibition at 72 h, 10 µM (%)
Please state the figure in %; there is no need to write the unit.

// query Please report inhibition at 72 h, 10 µM for the following compound: C[C@]12CC[C@H]3[C@@H](CCC4C[C@@H](O)CC[C@@]43C)[C@@H]1CC[C@@H]2c1nn(-c2ccccc2)cc1CNc1ccccc1 (some centres not stated)
// result 12.5

// query Give inhibition at 72 h, 10 µM for the following compound: "CC(C)NCc1cn(-c2ccccc2)nc1C1=CC[C@H]2[C@@H]3CC=C4C[C@@H](O)CC[C@]4(C)[C@H]3CC[C@]12C"
// result 94.7

// query Item "C[C@]12CC[C@H](O)C[C@@H]1CC[C@@H]1[C@@H]2CC[C@]2(C)[C@@H](c3nn(-c4ccccc4)cc3CO)CC[C@@H]12" : provide inhibition at 72 h, 10 µM
// result 18.5

// query Give me measured inhibition at 72 h, 10 µM, please, for this compound: CCCNCc1cn(-c2ccccc2)nc1[C@H]1CC[C@H]2[C@@H]3CCC4C[C@@H](O)CC[C@]4(C)[C@H]3CC[C@]12C (some centres not stated)
// result 91.9

// query Output measured inhibition at 72 h, 10 µM for this item: "CCCCNCc1cn(-c2ccccc2)nc1C1=CC[C@H]2[C@@H]3CC=C4C[C@@H](O)CC[C@]4(C)[C@H]3CC[C@]12C"
// result 95.1

// query Give reported inhibition at 72 h, 10 µM value for C[C@]12CC[C@H]3[C@@H](CCC4C[C@@H](O)CC[C@@]43C)[C@@H]1CC[C@@H]2c1nn(-c2ccccc2)cc1CNCc1ccccc1 (some centres not stated)
// result 60.8

// query Answer with reported inhibition at 72 h, 10 µM of "CCCNCc1cn(-c2ccccc2)nc1C1=CC[C@H]2[C@@H]3CC=C4C[C@@H](O)CC[C@]4(C)[C@H]3CC[C@]12C"
// result 93.7

// query Give the value of inhibition at 72 h, 10 µM reported for the following: "CCNCc1cn(-c2ccccc2)nc1C1=CC[C@H]2[C@@H]3CC=C4C[C@@H](O)CC[C@]4(C)[C@H]3CC[C@]12C"
// result 94.2

// query Report inhibition at 72 h, 10 µM, nothing else, for this compound: CNCc1cn(-c2ccccc2)nc1[C@H]1CC[C@H]2[C@@H]3CCC4C[C@@H](O)CC[C@]4(C)[C@H]3CC[C@]12C (some centres not stated)
// result 79.2

// query Give the measured inhibition at 72 h, 10 µM for CCNCc1cn(-c2ccccc2)nc1[C@H]1CC[C@H]2[C@@H]3CCC4C[C@@H](O)CC[C@]4(C)[C@H]3CC[C@]12C (some centres not stated)
// result 91.2

// query Please look at this compound and report its inhibition at 72 h, 10 µM: "CNCc1cn(-c2ccccc2)nc1C1=CC[C@H]2[C@@H]3CC=C4C[C@@H](O)CC[C@]4(C)[C@H]3CC[C@]12C"
// result 91.6

====

Assay: Cytotoxicity against human 293T cells assessed as growth inhibition at 10 uM after 72 hrs by SRB assay relative to control
Type: cell-based
Conditions: HEK-293T cells, read-out: GI
Quantity Kind: inhibition at 72 h, 10 µM (%)
Provide only the numeric value, understood in %.

// query Tell me measured inhibition at 72 h, 10 µM for "C[C@]12CC[C@H](O)CC1=CC[C@@H]1[C@@H]2CC[C@]2(C)C(c3nn(-c4ccccc4)cc3CNCc3ccccc3)=CC[C@@H]12" please.
// result 50.7

// query Return the recorded inhibition at 72 h, 10 µM value; entry: CC(C)NCc1cn(-c2ccccc2)nc1[C@H]1CC[C@H]2[C@@H]3CCC4C[C@@H](O)CC[C@]4(C)[C@H]3CC[C@]12C (stereo partly drawn)
// result 87.4

Data provenance: ChEMBL document CHEMBL4049388
